system.under.test: rat collagen (acid soluble, type I, rat tail, Upstate 08-115) (rat) (UniProt P02454)
Sequence (P02454 152-1207 limits assumed, chain 1 of 2): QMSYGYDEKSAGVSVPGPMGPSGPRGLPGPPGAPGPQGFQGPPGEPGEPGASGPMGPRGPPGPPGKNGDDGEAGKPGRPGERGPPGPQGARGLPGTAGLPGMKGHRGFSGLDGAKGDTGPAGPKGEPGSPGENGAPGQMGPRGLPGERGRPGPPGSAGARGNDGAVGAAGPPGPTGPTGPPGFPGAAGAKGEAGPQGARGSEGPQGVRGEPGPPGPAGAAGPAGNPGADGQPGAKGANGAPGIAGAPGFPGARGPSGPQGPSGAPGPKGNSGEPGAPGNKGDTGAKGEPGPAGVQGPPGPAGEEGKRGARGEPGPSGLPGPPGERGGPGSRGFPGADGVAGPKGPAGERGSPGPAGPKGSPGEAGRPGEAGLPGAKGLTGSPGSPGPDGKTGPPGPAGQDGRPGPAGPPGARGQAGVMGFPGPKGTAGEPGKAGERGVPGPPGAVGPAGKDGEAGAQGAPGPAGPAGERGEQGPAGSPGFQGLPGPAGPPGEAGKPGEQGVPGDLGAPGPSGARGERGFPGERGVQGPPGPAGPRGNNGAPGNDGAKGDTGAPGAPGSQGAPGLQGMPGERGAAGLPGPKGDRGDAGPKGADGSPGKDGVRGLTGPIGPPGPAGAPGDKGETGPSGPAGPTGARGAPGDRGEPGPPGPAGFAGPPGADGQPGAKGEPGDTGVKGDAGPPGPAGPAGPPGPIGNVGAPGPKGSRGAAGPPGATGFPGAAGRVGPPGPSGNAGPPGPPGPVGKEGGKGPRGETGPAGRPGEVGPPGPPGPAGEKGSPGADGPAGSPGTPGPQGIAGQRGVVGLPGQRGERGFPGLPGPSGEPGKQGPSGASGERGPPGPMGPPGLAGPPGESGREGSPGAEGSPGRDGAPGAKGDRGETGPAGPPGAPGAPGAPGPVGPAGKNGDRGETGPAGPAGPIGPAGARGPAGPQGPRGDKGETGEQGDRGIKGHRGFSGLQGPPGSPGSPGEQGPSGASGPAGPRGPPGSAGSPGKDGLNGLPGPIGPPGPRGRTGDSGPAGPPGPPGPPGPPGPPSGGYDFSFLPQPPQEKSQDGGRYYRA
Sequence (P02466 86-1125 limits assumed, chain 2 of 2, further chain): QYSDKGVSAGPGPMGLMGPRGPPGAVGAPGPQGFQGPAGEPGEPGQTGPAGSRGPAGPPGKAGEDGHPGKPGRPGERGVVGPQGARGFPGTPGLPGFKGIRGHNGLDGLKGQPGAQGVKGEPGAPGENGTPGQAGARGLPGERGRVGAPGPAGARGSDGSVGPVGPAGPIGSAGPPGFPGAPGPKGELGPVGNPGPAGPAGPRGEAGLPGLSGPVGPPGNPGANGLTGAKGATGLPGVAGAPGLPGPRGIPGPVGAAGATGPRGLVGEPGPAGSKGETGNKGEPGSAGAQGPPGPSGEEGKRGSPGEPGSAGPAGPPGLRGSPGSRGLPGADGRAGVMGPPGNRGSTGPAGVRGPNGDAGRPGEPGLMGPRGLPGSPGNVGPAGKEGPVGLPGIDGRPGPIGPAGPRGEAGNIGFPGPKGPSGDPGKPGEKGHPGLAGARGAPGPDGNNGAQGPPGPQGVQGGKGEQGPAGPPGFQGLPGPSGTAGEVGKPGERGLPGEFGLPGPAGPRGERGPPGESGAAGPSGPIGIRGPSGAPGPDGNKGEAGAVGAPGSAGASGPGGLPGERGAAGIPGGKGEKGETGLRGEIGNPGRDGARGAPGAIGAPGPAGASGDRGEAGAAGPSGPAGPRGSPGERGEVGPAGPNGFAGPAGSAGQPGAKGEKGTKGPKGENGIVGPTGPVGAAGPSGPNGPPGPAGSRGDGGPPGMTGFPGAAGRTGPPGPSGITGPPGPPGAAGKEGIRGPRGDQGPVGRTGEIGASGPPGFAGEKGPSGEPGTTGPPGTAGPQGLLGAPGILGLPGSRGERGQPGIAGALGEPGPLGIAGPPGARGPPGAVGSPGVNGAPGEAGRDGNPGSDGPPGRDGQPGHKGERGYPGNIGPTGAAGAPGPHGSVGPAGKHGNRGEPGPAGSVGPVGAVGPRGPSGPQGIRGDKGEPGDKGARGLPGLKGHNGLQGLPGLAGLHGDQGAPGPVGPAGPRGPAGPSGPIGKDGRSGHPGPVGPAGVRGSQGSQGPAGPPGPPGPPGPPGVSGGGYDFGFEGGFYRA
protocol.details: dried collagen assay
Bridge positions count the residues as written; N and C are the ends. Square brackets hold non-standard residues; d marks the D form. Primed or numbered codes have the meaning given here. Ends that are not written are not given here. Glu‑DTPA‑Gd‑PEG(2O) = not defined here; Gd^T″ = GdDTPA-thiourea
measured.endpoint: % bound (%)

DWTCSGDEYTWYCNYE (not fully specified; Gd^T-DWTCSGDEYTWYCNYE) [Comp ID 842] ... 9

P. YHACYQAGCYIW (disulfide 4-9 (inferred)) [SEQ ID NO: 107]
Q. {Gd^T″}-GAWTCSGDEYTWHCNYE (disulfide 5-14 (inferred)) [Comp ID 830]
Request: Hey, between P and Q which has a smaller measured % bound? // return label of chosen record
Result: P

1. GQWHCTTRFPHHXCLYG (not fully specified; Gd^T-GQWHCTTRFPHH-1-nal-CLYG) [Comp ID 904]
2. GQWHCTTDFPHHYCLYG (not fully specified; Gd^T-GQWHCTTD-F(3,4-OMe)-PHHYCLYG) [Comp ID 893]
Request: Hey, between 1 and 2 which has a smaller measured % bound? // return label of chosen record
Result: 2

A. GQWTCSGDEYTWHCAYE (not fully specified; Gd^T-GQWTCSGDEYTWHCAYE) [Comp ID 839]
B. GQWHCTTRFPHHXCLYG (not fully specified; Gd^T-GQWHCTTRFPHH-bip-CLYG) [Comp ID 903]
Request: Hey, between A and B which has a smaller measured % bound? // return label of chosen record
Result: B
(B: 5%, A: 11%)

P. {Glu‑DTPA‑Gd‑PEG(2O)}-GQWTCSGDEYTWHCNY[dE]-NH2 (disulfide 5-14 (inferred); reading uncertain) [Compound ID 1026]
Q. GQWHCTTDFPHHYCLYG (not fully specified; Gd^T-GQWHCTTD-F(4-CN)-PHHYCLYG) [Comp ID 883]
Request: Short answer wanted: higher % bound, P or Q ? // return label of chosen record
Result: P
(P: 5%, Q: 2%)

# credit: patent US20070293656A1
